Test: Thermodynamic aqueous solubility study by HPLC (Example 5)
Format: physicochemical
Run Parameters: buffer pH 7.4, pH 7.4, aqueous buffer, thermodynamic from solid
Metric Name: solubility (µg/mL)

CC(C)N1C[C@@H]2C[C@H]1CN2c1ccc(Nc2ncc(-c3coc(C(N)=O)c3)n3ncnc23)cc1    10

###

Test: Aqueous solubility determination (Example 4)
Type: physicochemical
Run Parameters: thermodynamic from solid; water, shaken 24 h at 22° C., free base concentration by HPLC; read-out: Measured solubility
Metric Name: solubility at 24 h (µg/mL)

CC(C)N1C[C@@H]2C[C@H]1CN2c1ccc(Nc2ncc(-c3coc(C(N)=O)c3)n3ncnc23)cc1    70

###

Tested on: MMP1 expression by SFs
Test: MMP assay proof of principle: MMP1 produced by complex trigger activated SFs
Type: cell-based
Run Parameters: 48 hrs, read-out: IC50, reduction of MMP1 expression by SFs
Procedure: A 384-well format ELISA for measurement of MMP1 is developed. Various primary antibodies are tested, as well as various ELISA protocols. […] Readout is performed on the Luminoscan Ascent Luminometer (Labsystems) with an integration time of 200 msec or with an Envision reader (Perkin Elmer). […]
Metric Name: IC50

C[C@@H]1C[C@H]2[C@@H]3CCC4=CC(=O)C=C[C@]4(C)[C@@]3(F)[C@@H](O)C[C@]2(C)[C@@]1(O)C(=O)CO [dexamethasone]    ~1 nM

###

Test system: MMP13 expression in SW1353 cells
Test: IL-1/OSM driven MMP13 expression in SW1353 cells (MMP13 ELISA)
Type: cell-based
Run Parameters: Homo sapiens, IL-1β and OSM, 48 hr
pIC50: −log10 of the molar value.
Metric Name: pIC50

CC(C)N1C[C@@H]2C[C@H]1CN2c1ccc(Nc2ncc(-c3coc(C(N)=O)c3)n3ncnc23)cc1 [Compound 1]    6.30 to 7.30

###

Test: Thermodynamic aqueous solubility study by HPLC (Example 5)
Format: physicochemical
Run Parameters: pure water, water, thermodynamic from solid
Metric Name: solubility (µg/mL)

CC(C)N1C[C@@H]2C[C@H]1CN2c1ccc(Nc2ncc(-c3coc(C(N)=O)c3)n3ncnc23)cc1    10

###

Test: Thermodynamic aqueous solubility study by HPLC (Example 5)
Assay type: physicochemical
Run Parameters: buffer pH 2.0, pH 2, aqueous buffer, thermodynamic from solid
Metric Name: solubility (µg/mL)

CC(C)N1C[C@@H]2C[C@H]1CN2c1ccc(Nc2ncc(-c3coc(C(N)=O)c3)n3ncnc23)cc1 [Compound 1]    300

src = patent US20110118269A1
